- System: M14 melanoma
- Test description: NCI-60 one-dose screen, 48 h (100 = growth as untreated, 0 = no growth, -100 = all killed)
- Experimental conditions: 10 µM
Compounds without any hit were thinned out: in the full panel of roughly 83,000, 20% have a hit. Activity calls are given as the source filed them. Rule for the calls: active = growth percent below 10; inactive = the rest.
Measured attribute: growth

IN: Param readout = growth; param system = M14 melanoma; param query = `CN(C)CCOc1cccc(NC2=C(Cl)C(=O)C(Nc3cccc(OCCN(C)C)c3)=C(Cl)C2=O)c1` ; response: value
OUT: -74% (active)

IN: Param readout = growth; param system = M14 melanoma; param query = `O=C1/C=C/[C@@H](O)[C@@H]2C[C@@H](O)C[C@H]2/C=C/CCC[C@H](CCc2ccc(NC(=S)Nc3ccc4c(c3)C(=O)OC43c4ccc(O)cc4Oc4cc(O)ccc43)cc2)O1` ; response: value
OUT: 10.9% (inactive)

IN: Param readout = growth; param system = M14 melanoma; param query = `Cc1cc(NC(=O)c2ccc(C)c(Nc3nccc(-c4cccnc4)n3)c2)cc(-n2cnc(C)c2)c1` ; response: value
OUT: 30.9% (inactive)

IN: Param readout = growth; param system = M14 melanoma; param query = `C=CCn1c(SCC(=O)Nc2ccc(C(=O)/C=C/c3ccc(OC)cc3)cc2)nnc1-c1ccc(OC)c(OC)c1` ; response: value
OUT: 89.6% (inactive)

IN: Param readout = growth; param system = M14 melanoma; param query = `Cc1c2cnccc2c(C)c2c1c1cc(O)ccc1n2C(C)C` ; response: value
OUT: -19% (active)

IN: Param readout = growth; param system = M14 melanoma; param query = `CC(C)(C)OC(=O)N1CCc2c(sc3ncnc(N/N=C/c4ccc(Br)cc4)c23)C1` ; response: value
OUT: 47.7% (inactive)

###

- Tested on: NCI-H460 lung
- Test description: NCI-60 one-dose screen, 48 h (100 = growth as untreated, 0 = no growth, -100 = all killed)
- Experimental conditions: 10 µM
The panel holds about 83,000 compounds, 20% with a hit somewhere; the sample as a whole holds those more often.
In plain terms, low growth, meaning strictly below 90%, gives met, and everything else gives not met.

Smiles	Classification
COc1ccc(-c2cc(-c3ccc(Cl)cc3)nc(SCCCCCCC(=O)NO)n2)cc1OC	met
CSc1nc(S(C)(=O)=O)nc2[nH]c(=O)[nH]c12	not met
c1cncc(-c2csc(-c3c[nH]c4ccccc34)n2)c1	not met

IN: Take the compound `COc1cc2cc(Oc3ccc(NC(=O)c4cc(C(F)(F)F)cc(C(F)(F)F)c4)cc3)c(C)nc2cc1OC` and say whether its growth is less than 90%.
OUT: met

###

- System: PC-3 prostate
- Test description: NCI-60 one-dose screen, 48 h (100 = growth as untreated, 0 = no growth, -100 = all killed)
- Experimental conditions: 10 µM
- Experimental: Growth inhibition of the PC-3 human tumor cell line is measured as a screen for anti-cancer activity. Cells are grown in 96 well plates and exposed to the test compound for 48 hours. Compounds are tested at a single concentration, which is 10^-5 M for most compounds. The reported endpoint is percent growth (GI% or GIPRCNT), where numbers from 0 - 100% represent growth inhibition, and numbers from -100% - 0 represent cell death. For example, a value of 40 represents 60% growth inhibition. […]
This is part of a sample that, as a whole, favours compounds with a hit. Of some 83,000 tested, about 20% had one in any assay.
Measured attribute: growth (%)
Give the number; % is assumed, so skip it.

Worked examples, 3 compounds total:
Smiles	Result value
COc1cccc(N=Nc2cccc(OC)c2)c1	67.7
NC(N)=N/N=C(\N=Nc1ccccc1)c1ccc(Cl)cc1	25.1
O=C1/C=C/[C@@H](O)[C@@H]2C[C@@H](O)C[C@H]2/C=C/CCC[C@@H](C(F)(F)F)O1	92.9

Please turn your attention to the following entry.
IN: Param readout = growth; param system = PC-3 prostate; param query = `O=C(N/N=C/c1ccc([N+](=O)[O-])cc1)c1ccccc1Nc1cccc(C(F)(F)F)c1` ; response: value
OUT: 91

###

- Tested on: CAKI-1 renal
- Test description: NCI-60 one-dose screen, 48 h
- Experimental conditions: 10 µM
The panel holds about 83,000 compounds, 20% with a hit somewhere; the sample as a whole holds those more often. Calls of active or inactive are those of the source. The calls were made as follows: active = growth percent below 10; inactive = the rest.
Your reply should match one of these outcome classes. active, inactive

# example entries with known answers
Compound	Classification
O=C1c2ccccc2C(=O)N1CCCCNc1ccccc1	inactive
COC(=O)CC[C@@H](C)[C@H]1CC[C@H]2[C@@H]3CC[C@@H]4C[C@H](O)CC[C@]4(C)[C@H]3C[C@H](O)[C@]12C	inactive
N#Cc1c(-c2ccc(Cl)cc2)cc(-c2cc(O)ccc2O)nc1N	inactive
OC(CCN1CCCC1)(c1ccccc1)C1CCCCC1 (centres undefined)	inactive
COc1ccc(-c2cc(-c3cc(OC)ccc3OC)nc(N)c2C#N)cc1	inactive

IN: Identify the outcome logged in this assay for the compound shown: `COc1cc2c(Nc3ccc(-c4ccc(N)cc4)cc3)ncnc2c(OC)c1OC`
OUT: active

###

- Tested on: SK-MEL-28 melanoma
- Test description: NCI-60 one-dose screen, 48 h (100 = growth as untreated, 0 = no growth, -100 = all killed)
- Experimental conditions: 10 µM
Compounds without any hit were thinned out: in the full panel of roughly 83,000, 20% have a hit.
Recorded growth values for a group of molecules are listed next.
Give the number; % is assumed, so skip it.

Worked examples, 3 molecules total:
Molecule	Measured attribute	Result value
CC(C)(C)c1ccc(S(=O)(=O)N[C@H]2CC[C@H]3[C@@H]4CCc5cc(O)c([N+](=O)[O-])cc5[C@H]4CC[C@]23C)cc1	growth	77
O=C(CCl)Oc1ccc(OC(=O)CCl)cc1	growth	104
COc1ccc(C(=O)N2C=Cc3ccccc3C2C#N)cc1 (stereo not given)	growth	95.3

IN: Name the reported growth value associated with the molecule `O=c1cn[nH]c2ccc(Br)cc12`
OUT: 123

IN: Name the reported growth value associated with the molecule `CC(C)(C)OC(=O)CN1CCc2c(sc3ncnc(N/N=C/c4ccccc4Br)c23)C1`
OUT: 90.9

###

- Tested on: NCI-H23 lung
- Test description: NCI-60 one-dose screen, 48 h (100 = growth as untreated, 0 = no growth, -100 = all killed)
- Experimental conditions: 10 µM
The panel holds about 83,000 compounds, 20% with a hit somewhere; the sample as a whole holds those more often.
Measured attribute: growth (%)
Give the number; % is assumed, so skip it.

Worked examples, 3 molecules total:
Molecule	Unit tag	growth
COc1ccc(-c2cc(-c3ccc(Cl)cc3)nc(SCCCCCCC(=O)NO)n2)cc1OC	%	42.7
CCN(CC)CCCC(Nc1c2ccc(Cl)cc2nc2ccc(OC)cc12)c1ccc(F)cc1 (stereo not given)	%	86.9
CCCCC(CC)CN=C(N)NC(N)=NCCCCCCN=C(N)NC(N)=NCC(CC)CCCC (stereo not given)	%	-80

IN: Name the reported growth value associated with the molecule CC(C)=CCC/C(C)=C/CC/C(C)=C/CC/C=C(\C)CC/C=C(\C)CCC(=O)Nc1ccn(C2OC(CO)C(O)C2(F)F)c(=O)n1 (stereo not given)
OUT: 25.3

IN: Name the reported growth value associated with the molecule `CCc1ccc(C2=NN(c3ccc(S(C)(=O)=O)cc3)C(=O)CC2)cc1`
OUT: -4.83

###

Recorded growth values for a group of compounds are listed next.
- Tested on: SK-MEL-5 melanoma
- Test description: NCI-60 one-dose screen, 48 h (100 = growth as untreated, 0 = no growth, -100 = all killed)
- Experimental conditions: 10 µM
Compounds without any hit were thinned out: in the full panel of roughly 83,000, 20% have a hit.
Give the number; % is assumed, so skip it.

Compound	growth / %
COc1ccc2nc3cc(Cl)ccc3c(NCCCNCCO)c2c1	14.3
CCOC(=O)N/N=C/c1ccc(OC)c(OC)c1	101
CC(C)(C)c1ccc(S(=O)(=O)N[C@H]2CC[C@H]3[C@@H]4CCc5cc(O)ccc5[C@H]4CC[C@]23C)cc1	40.4
CCN(CC)CCNc1ccc(C)c2sc3cc(Cl)ccc3c(=O)c12	14.1
COc1ccc2nc(Cl)c(Cn3nnc(Cc4ccccc4)n3)cc2c1	-47.2
Cc1ccc(NCCN(C)CC(C)O)c2c(=O)c3ccc(Cl)cc3sc12 (stereo not given)	46.9
CC[C@@H](C(=O)[C@@H](C)[C@@H](O)[C@H](C)[C@@H]1O[C@@H]([C@@H](CC)C(=O)O)CC[C@@H]1C)C1O[C@]2(C=CC(=O)[C@]3(CC[C@@](C)([C@H]4CC[C@](O)(CC)[C@H](C)O4)O3)O2)[C@H](C)C[C@@H]1C (stereo not given in full)	-91.7
N#CCc1csc(Cc2ccccc2)n1	102
CCOC(=O)CC(S(=O)(=O)c1ccccc1)S(=O)(=O)c1ccccc1	96.6
O=C(O)c1cc([N+](=O)[O-])ccc1Oc1ccccc1	84.6

IN: Param readout = growth; param system = SK-MEL-5 melanoma; param query = `COc1ccc(-c2cc(-c3cc(OC)ccc3OC)nc(N)c2C#N)cc1` ; response: value
OUT: 63

IN: Param readout = growth; param system = SK-MEL-5 melanoma; param query = `Cc1ccc2nc(Cl)c(-c3nc4ccccc4o3)cc2c1` ; response: value
OUT: 88.7

IN: Param readout = growth; param system = SK-MEL-5 melanoma; param query = CC(C)[N+]1(C)C2CC[C@@H]1CC(OC(=O)C(CO)c1ccccc1)C2 (stereo not given in full) ; response: value
OUT: 95.6

IN: Param readout = growth; param system = SK-MEL-5 melanoma; param query = `COc1cc(Cc2cc(-c3ccccc3)n[nH]c2=O)cc(OC)c1OC` ; response: value
OUT: 50.4

IN: Param readout = growth; param system = SK-MEL-5 melanoma; param query = `O=C(CCCNC(=O)c1nc(-c2ccccc2)n(-c2ccccc2)n1)NO` ; response: value
OUT: 104

IN: Param readout = growth; param system = SK-MEL-5 melanoma; param query = `COc1ccc(-c2nn(-c3cccc(Cl)c3)cc2-c2cc(-c3ccccc3)[nH]c(=O)c2C#N)cc1` ; response: value
OUT: 39.9

IN: Param readout = growth; param system = SK-MEL-5 melanoma; param query = `COc1ccc(-c2cc(-c3ccc(Cl)cc3)nc(SCCCCCCC(=O)NO)n2)cc1OC` ; response: value
OUT: 1.04

IN: Param readout = growth; param system = SK-MEL-5 melanoma; param query = `NS(=O)(=O)Oc1ccc(NC(=O)C2CCCCCC2)cc1` ; response: value
OUT: 101

Data origin: PubChem BioAssay (NCI)
